Listed here are molecules together with their documented MIC.
system: Streptococcus pneumoniae; experiment: Antibacterial activity against Streptococcus pneumoniae CIP104485 by agar dilution method; assay type: functional; settings: CIP1044

| Smiles Notation | MIC |
| --- | --- |
| CCn1cc(C(=O)O)c(=O)c2cc(F)c(N3CCNCC3)cc21 | 4 µg/mL |
| COc1c(N2C[C@@H]3CCCN[C@@H]3C2)c(F)cc2c(=O)c(C(=O)O)cn(C3CC3)c12 | 0.125 µg/mL |
| CCn1cc(C(=O)O)c(=O)c2cc(F)c(N3CCN(C)CC3)cc21 | 8 µg/mL |
| C[C@@H]1CN(c2c(F)c(N)c3c(=O)c(C(=O)O)cn(C4CC4)c3c2F)C[C@H](C)N1 | 0.25 µg/mL |
| O=C(O)c1cn(C2CC2)c2cc(N3CCNCC3)c(F)cc2c1=O | 1 µg/mL |

###

tested on: Streptococcus pneumoniae; experiment: Antibacterial activity against Streptococcus pneumoniae R6 Tr1 harboring parC Ser79Tyr mutant gene by agar dilution method; assay type: functional

| Smiles Notation | Study Target | MIC |
| --- | --- | --- |
| CCn1cc(C(=O)O)c(=O)c2cc(F)c(N3CCN(C)CC3)cc21 | Streptococcus pneumoniae | 64 µg/mL |
| O=C(O)c1cn(C2CC2)c2cc(N3CCNCC3)c(F)cc2c1=O | Streptococcus pneumoniae | 2 µg/mL |
| C[C@@H]1CN(c2c(F)c(N)c3c(=O)c(C(=O)O)cn(C4CC4)c3c2F)C[C@H](C)N1 | Streptococcus pneumoniae | 1 µg/mL |
| COc1c(N2C[C@@H]3CCCN[C@@H]3C2)c(F)cc2c(=O)c(C(=O)O)cn(C3CC3)c12 | Streptococcus pneumoniae | 0.5 µg/mL |
| CCn1cc(C(=O)O)c(=O)c2cc(F)c(N3CCNCC3)cc21 | Streptococcus pneumoniae | 64 µg/mL |

###

Listed here are molecules together with their documented MIC.
system: Streptococcus pneumoniae; experiment: Antibacterial activity against Streptococcus pneumoniae U2A1050 harboring gyrA Ser81Phe mutant gene by agar dilution method; type: functional
Property Name: MIC (µg/mL)

| Molecule | Value Measured |
| --- | --- |
| C[C@@H]1CN(c2c(F)c(N)c3c(=O)c(C(=O)O)cn(C4CC4)c3c2F)C[C@H](C)N1 [SPARFLOXACIN] | 2 |
| O=C(O)c1cn(C2CC2)c2cc(N3CCNCC3)c(F)cc2c1=O [CIPROFLOXACIN] | 2 |
| CCn1cc(C(=O)O)c(=O)c2cc(F)c(N3CCNCC3)cc21 [NORFLOXACIN] | 8 |
| COc1c(N2C[C@@H]3CCCN[C@@H]3C2)c(F)cc2c(=O)c(C(=O)O)cn(C3CC3)c12 [MOXIFLOXACIN] | 1 |
| CCn1cc(C(=O)O)c(=O)c2cc(F)c(N3CCN(C)CC3)cc21 [PEFLOXACIN] | 16 |

###

Listed here are compounds together with their documented diameter of the inhibition zone (DIZ).
test system: Streptococcus pneumoniae; test: Antibacterial activity against Streptococcus pneumoniae CIP104485 by agar disk diffusion method; format: functional, CIP1044
Property Name: diameter of the inhibition zone (DIZ) (mm)

| Compound | Study Target | Value Measured |
| --- | --- | --- |
| C[C@@H]1CN(c2c(F)c(N)c3c(=O)c(C(=O)O)cn(C4CC4)c3c2F)C[C@H](C)N1 [SPARFLOXACIN] | Streptococcus pneumoniae | 24 |
| CCn1cc(C(=O)O)c(=O)c2cc(F)c(N3CCNCC3)cc21 [NORFLOXACIN] | Streptococcus pneumoniae | 19 |
| CCn1cc(C(=O)O)c(=O)c2cc(F)c(N3CCN(C)CC3)cc21 [PEFLOXACIN] | Streptococcus pneumoniae | 18 |
| CCn1cc(C(=O)O)c(=O)c2ccc(C)nc21 [NALIDIXIC ACID] | Streptococcus pneumoniae | 6 |
| COc1c(N2C[C@@H]3CCCN[C@@H]3C2)c(F)cc2c(=O)c(C(=O)O)cn(C3CC3)c12 [MOXIFLOXACIN] | Streptococcus pneumoniae | 26 |
| C[C@H]1COc2c(N3CCN(C)CC3)c(F)cc3c(=O)c(C(=O)O)cn1c23.C[C@H]1COc2c(N3CCN(C)CC3)c(F)cc3c(=O)c(C(=O)O)cn1c23.O [LEVOFLOXACIN] | Streptococcus pneumoniae | 22 |
| O=C(O)c1cn(C2CC2)c2cc(N3CCNCC3)c(F)cc2c1=O [CIPROFLOXACIN] | Streptococcus pneumoniae | 25 |
